Data credit: paper PMC11046469

Target: ENL YEATS domain (His-ENL) (Homo sapiens)
Sequence (Q03111 1-148): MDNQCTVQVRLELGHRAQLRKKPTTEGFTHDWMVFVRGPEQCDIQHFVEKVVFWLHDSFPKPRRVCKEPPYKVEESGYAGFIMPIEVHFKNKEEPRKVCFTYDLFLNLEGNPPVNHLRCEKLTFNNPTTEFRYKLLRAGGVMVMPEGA
Where a SMILES comes first, the peptide text is derived from it. The star is where a group is joined. Oxazole(5-CO) = O=C(c1cnco1)*; Crotonyl(E) = C/C=C/C(=O)*; 2Furoyl = O=C(c1ccco1)*; Butyryl = CCCC(=O)*
Can you tell me Kd for the items I'm about to list?
// units = nM; emit number, no label

INPUT: Recorded Kd for C/C=C/C(=O)NCCCC[C@H](NC(=O)[C@H](Cc1ccc(O)cc1)NC(=O)[C@H](CS)NC(=O)[C@H](Cc1ccc(O)cc1)NC(=O)[C@@H](NC(=O)[C@H](CC(=O)O)NC(=O)[C@@H](N)Cc1ccc(O)cc1)C(C)C)C(N)=O [ENL-S1c] (H-YDVYCYK(Crotonyl(E))-NH2) , please?
OUTPUT: 16.2

INPUT: Recorded Kd for CC(C)[C@H](NC(=O)[C@H](CC(=O)O)NC(=O)[C@@H](N)Cc1ccc(O)cc1)C(=O)N[C@@H](Cc1ccc(O)cc1)C(=O)N[C@@H](CS)C(=O)N[C@@H](Cc1ccc(O)cc1)C(=O)N[C@@H](CCCCNC(=O)c1ccco1)C(N)=O [ENL-S1f] (H-YDVYCYK(2Furoyl)-NH2) , please?
OUTPUT: 10.3

INPUT: Recorded Kd for CC(C)[C@H](NC(=O)[C@H](CC(=O)O)NC(=O)[C@@H](N)Cc1ccc(O)cc1)C(=O)N[C@@H](Cc1ccc(O)cc1)C(=O)N[C@@H](CS)C(=O)N[C@@H](Cc1ccc(O)cc1)C(=O)N[C@@H](CCCCNC(=O)c1cnco1)C(N)=O [ENL-S1o] (H-YDVYCYK(Oxazole(5-CO))-NH2) , please?
OUTPUT: 2

INPUT: Recorded Kd for CCCC(=O)NCCCC[C@H](NC(=O)[C@H](CCC(=O)O)NC(=O)[C@@H](NC(=O)[C@@H](NC(=O)[C@H](Cc1c[nH]c2ccccc12)NC(=O)[C@@H](N)Cc1c[nH]c2ccccc12)[C@@H](C)CC)[C@@H](C)CC)C(=O)NCC(N)=O [ENL-S2] (H-WWIIEK(Butyryl)G-NH2; N-terminus assumed) , please?
OUTPUT: 881
